# Test system: KM12
# procedure summary: Growth inhibition of human KM12 cells after 48 hrs by sulforhodamine B assay
# Assay type: functional
# test settings: KM12, 48 h
Values of GI50 strictly less than 1 µM map to yes, and values of at least 1 µM map to no.

O=C(c1nn(-c2ccc(Cl)cc2)cc1O)n1nc(-c2ccco2)cc1C(F)(F)F	no
Cc1cc(C)n(C(=O)c2nn(-c3ccc(Cl)cc3)cc2O)n1	no
N#Cc1cnn(C(=O)c2nn(-c3ccc(Cl)cc3)cc2O)c1N	yes
CC1=NN(C(=O)c2nn(-c3ccc(Cl)cc3)cc2O)C(=O)C1	no

Decide: GI50 of `O=C1CC(=O)N(C(=O)c2nn(-c3ccc(Cl)cc3)cc2O)N1` strictly below 1 µM?
no

Decide: GI50 of `Cc1c2c(nn1C(=O)c1nn(-c3ccc(Cl)cc3)cc1O)-c1ccccc1CC2` strictly below 1 µM?
yes
